All figures here come from paper PMC1278935.

# Substrate: CN(C)c1ccc(N=Nc2ccc(S(=O)(=O)N[C@@H](CC[S@@+](C)[O-])C(=O)O)cc2)cc1
# assay-protocol: HPLC of dabsyl-Met, Lineweaver-Burk
# Format: biochemical, Mus musculus
# assay-setup: 20 mM DTT, 50 mM sodium phosphate pH 7.5, 50 mM NaCl, 37 °C, Sec form from NIH 3T3
result-type: Km (µM)
I only need the number, in µM, no unit after it.

Worked examples follow.
protein | Km / µM
MsrB1 (Sec-containing MsrB1; Cys form MsrB1-Cys) (Mus musculus; G77H) (protein, full length, monomer; Sec forms: natural SECIS element, C-terminal His tag (five His added to own C-terminal His), from NIH 3T3 cells; C-terminally tagged form of similar activity also made) MSFCSFFGGEVFQNHFEPGVYVCAKCSYELFSSHSKYAHSSPWPAFTETIHPDSVTKCPEKNRPEALKVSCGKCGNHLGHEFLNDGPKRGQSRFUIFSSSLKFVPKGKEAAASQGH | 800
MsrB1 (Sec-containing MsrB1; Cys form MsrB1-Cys) (Mus musculus) (protein, full length, monomer; Sec forms: natural SECIS element, C-terminal His tag (five His added to own C-terminal His), from NIH 3T3 cells; C-terminally tagged form of similar activity also made) MSFCSFFGGEVFQNHFEPGVYVCAKCSYELFSSHSKYAHSSPWPAFTETIHPDSVTKCPEKNRPEALKVSCGKCGNGLGHEFLNDGPKRGQSRFUIFSSSLKFVPKGKEAAASQGH | 500
MsrB1 (Sec-containing MsrB1; Cys form MsrB1-Cys) (Mus musculus; F97N/G77H) (protein, full length, monomer; Sec forms: natural SECIS element, C-terminal His tag (five His added to own C-terminal His), from NIH 3T3 cells; C-terminally tagged form of similar activity also made) MSFCSFFGGEVFQNHFEPGVYVCAKCSYELFSSHSKYAHSSPWPAFTETIHPDSVTKCPEKNRPEALKVSCGKCGNHLGHEFLNDGPKRGQSRFUINSSSLKFVPKGKEAAASQGH | 6400

Now look at this one.
Entry under test: MsrB1 (Sec-containing MsrB1; Cys form MsrB1-Cys) (Mus musculus; F97N) (protein, full length, monomer; Sec forms: natural SECIS element, C-terminal His tag (five His added to own C-terminal His), from NIH 3T3 cells; C-terminally tagged form of similar activity also made) MSFCSFFGGEVFQNHFEPGVYVCAKCSYELFSSHSKYAHSSPWPAFTETIHPDSVTKCPEKNRPEALKVSCGKCGNGLGHEFLNDGPKRGQSRFUINSSSLKFVPKGKEAAASQGH . Its Km was 4300
